Assay: pharmacokinetics of Zeta55 in rats
Assay type: in vivo
Details: male, SD, rat, plasma, po, 20 mg/kg, oral gavage 20 mg/kg, n=4, rats
measurementName: half-life

                                 testsmiles  measvalue
0  N#Cc1ccc(N2C(=O)C3(CCC3)N(c3ccc(C(=O)NO)c(F)c3)C2=S)cc1C(F)(F)F     ~2.9 h

* * *

Molecular target: HDAC3 (Homo sapiens)
Sequence (O15379 whole entry): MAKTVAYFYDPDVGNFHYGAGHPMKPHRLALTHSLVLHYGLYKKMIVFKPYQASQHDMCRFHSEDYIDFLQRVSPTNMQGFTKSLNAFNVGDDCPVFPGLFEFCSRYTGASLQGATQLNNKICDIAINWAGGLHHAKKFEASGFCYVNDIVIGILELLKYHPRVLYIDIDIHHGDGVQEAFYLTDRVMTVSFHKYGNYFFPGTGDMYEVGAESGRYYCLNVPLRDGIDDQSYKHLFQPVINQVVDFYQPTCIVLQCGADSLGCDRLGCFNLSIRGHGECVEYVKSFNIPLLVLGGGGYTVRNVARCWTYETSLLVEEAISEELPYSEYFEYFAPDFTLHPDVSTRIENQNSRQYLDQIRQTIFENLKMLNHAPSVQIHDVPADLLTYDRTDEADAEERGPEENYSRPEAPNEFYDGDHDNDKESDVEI
Sequence (Q9Y618 395-489 partner limits assumed): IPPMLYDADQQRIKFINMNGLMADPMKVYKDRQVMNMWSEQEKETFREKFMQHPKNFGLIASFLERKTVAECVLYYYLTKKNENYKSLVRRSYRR
pIC50: −log10 of the molar value.
measurementName: pIC50

In [3]: df
Out[3]:
                                   compound          targetentity  measurementname  measvalue
0  N#Cc1ccc(N2C(=O)C3(CCC3)N(c3ccc(C(=O)NO)c(F)c3)C2=S)cc1C(F)(F)F [Zeta55]  HDAC3 (Homo sapiens)            pIC50     < 4.70

* * *

Target: HDAC6 (Homo sapiens, UniProt Q9UBN7)
Sequence (Q9UBN7 whole entry): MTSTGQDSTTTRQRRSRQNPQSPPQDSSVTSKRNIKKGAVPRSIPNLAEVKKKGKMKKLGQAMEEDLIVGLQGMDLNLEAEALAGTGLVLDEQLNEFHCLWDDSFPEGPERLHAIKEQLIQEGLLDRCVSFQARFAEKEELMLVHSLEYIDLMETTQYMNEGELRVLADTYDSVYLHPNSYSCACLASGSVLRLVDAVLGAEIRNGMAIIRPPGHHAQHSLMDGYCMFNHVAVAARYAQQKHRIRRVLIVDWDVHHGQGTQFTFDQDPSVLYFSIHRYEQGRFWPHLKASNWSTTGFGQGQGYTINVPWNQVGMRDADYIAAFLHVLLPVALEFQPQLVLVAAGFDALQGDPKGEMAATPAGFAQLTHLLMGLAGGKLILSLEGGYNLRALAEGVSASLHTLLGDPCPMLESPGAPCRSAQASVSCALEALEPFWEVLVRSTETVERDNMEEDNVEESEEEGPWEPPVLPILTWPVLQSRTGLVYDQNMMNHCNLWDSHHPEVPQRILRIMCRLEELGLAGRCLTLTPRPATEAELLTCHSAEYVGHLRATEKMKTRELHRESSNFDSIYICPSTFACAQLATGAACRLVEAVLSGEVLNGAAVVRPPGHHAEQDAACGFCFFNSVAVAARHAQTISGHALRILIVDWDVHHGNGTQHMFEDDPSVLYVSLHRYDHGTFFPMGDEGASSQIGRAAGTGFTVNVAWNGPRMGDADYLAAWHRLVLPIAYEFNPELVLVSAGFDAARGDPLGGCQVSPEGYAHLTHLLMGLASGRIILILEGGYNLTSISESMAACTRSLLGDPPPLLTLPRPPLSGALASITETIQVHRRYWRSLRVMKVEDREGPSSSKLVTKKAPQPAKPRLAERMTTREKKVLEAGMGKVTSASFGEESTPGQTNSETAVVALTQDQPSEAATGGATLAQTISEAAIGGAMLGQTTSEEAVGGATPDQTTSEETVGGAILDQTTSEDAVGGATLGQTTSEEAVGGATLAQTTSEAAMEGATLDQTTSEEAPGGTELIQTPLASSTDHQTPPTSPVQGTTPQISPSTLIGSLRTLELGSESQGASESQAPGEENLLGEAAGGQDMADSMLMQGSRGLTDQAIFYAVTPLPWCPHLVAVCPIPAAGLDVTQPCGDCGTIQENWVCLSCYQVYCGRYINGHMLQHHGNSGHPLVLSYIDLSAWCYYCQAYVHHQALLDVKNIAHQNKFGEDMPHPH
measurementName: IC50 (nM)

>>> print(df.to_string())
                                 testsmiles  unitstring  measvalue
0  N#Cc1ccc(N2C(=O)C3(CCC3)N(c3ccc(C(=O)NO)c(F)c3)C2=S)cc1C(F)(F)F          nM        980

* * *

Assay: pharmacokinetics of Zeta55 in rats
Format: in vivo
Conditions: male, SD, rat, plasma; PO, oral gavage 20 mg/kg, n=4, rats
measurementName: Cmax (ng/mL)

>>> df
                                   compound  measvalue
0  N#Cc1ccc(N2C(=O)C3(CCC3)N(c3ccc(C(=O)NO)c(F)c3)C2=S)cc1C(F)(F)F [Zeta55]        183

* * *

Assay: pharmacokinetics of Zeta55 in rats
Assay type: in vivo
Settings: male, SD, rat, plasma; PO, oral gavage 20 mg/kg, n=4, rats
measurementName: CL/F

In [3]: df
Out[3]:
                                   compound      measvalue
0  N#Cc1ccc(N2C(=O)C3(CCC3)N(c3ccc(C(=O)NO)c(F)c3)C2=S)cc1C(F)(F)F [Zeta55]  632 mL/min/kg

* * *

Test: pharmacokinetics of Zeta55 in rats
Format: in vivo
Conditions: male, SD, rat, plasma; PO, oral gavage 20 mg/kg, n=4, rats
measurementName: Tmax (min)

>>> print(df.to_string())
                                   compound  measvalue
0  N#Cc1ccc(N2C(=O)C3(CCC3)N(c3ccc(C(=O)NO)c(F)c3)C2=S)cc1C(F)(F)F [Zeta55]       22.5

* * *

Assay: pharmacokinetics of Zeta55 in rats
Assay type: in vivo
Conditions: male, SD, rat, plasma; PO 20 mg/kg vs IV 5 mg/kg, rats
Experimental: To evaluate the pharmacokinetic properties of Zeta55 in vivo, rats were orally (20 mg/kg) or intravenously (5 mg/kg) administrated with Zeta55, and the plasma concentration of Zeta55 was measured using LC-MS/MS. SD male rats weighing about 250 g were used for the pharmacokinetics study of Zeta55. […] Plasma samples of 0.2 ml were taken at 0, 0.083, 0.25, 0.5, 1, 2, 3, 5, 8, 10, 24, 48, and 72 hours after administration and then measured by LC-MS/MS. […]
measurementName: bioavailability (%)

                                   compound  measvalue
0  N#Cc1ccc(N2C(=O)C3(CCC3)N(c3ccc(C(=O)NO)c(F)c3)C2=S)cc1C(F)(F)F [Zeta55]       17.6
